All figures here come from the supplement of paper PMC10338343.

Test system: MIWI (PIWIL1) piRISC loaded with L1MC piRNA (30 nt);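 also: 1 nM active piRISC with 0.1 nM target library at 33 °C single turnover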
Protocol: pre-steady-state target cleavage rate (min^-1); higher = faster piRNA-guided slicing of the target
Condition: guide: L1MC piRNA 5'p-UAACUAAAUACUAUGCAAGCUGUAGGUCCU; auxiliary factor: none (no GTSF1)
Over roughly 8,200 sequences, “pre-steady-state target cleavage rate” has its median near 0.024; the highest 2% begin near 1.3. The sample as a whole holds a higher share of the highest values than the screen did.
Quantity: pre-steady-state target cleavage rate
Numbers only.

Reference set (10 entries):
Biopolymer sequence: UCCAGCUACAGCUUGGAUAGUAUUUAGUUA
pre-steady-state target cleavage rate: 0.0456
//
Biopolymer sequence: AGGACCUUGUGCUUGCAUAGUAUUUAGUUA
pre-steady-state target cleavage rate: 0.0654
//
Biopolymer sequence: UCCUGGUACAGCUUGCUUAGUAUUUAGUUA
pre-steady-state target cleavage rate: 0.0523
//
Biopolymer sequence: UCCUCGUACAGCUUGCUUAGUAUUUAGUUA
pre-steady-state target cleavage rate: 0.0419
//
Biopolymer sequence: AGGACCAACAGCUUGCAUAGUAUUUAGAUA
pre-steady-state target cleavage rate: 0.0557
//
Biopolymer sequence: UCCAGGUACAGCUUGCAUAGUAUUUAGUUA
pre-steady-state target cleavage rate: 0.0764
//
Biopolymer sequence: UCCUGGAACAGCUUGGAUAGUAUUUAGUUA
pre-steady-state target cleavage rate: 0.0808
//
Biopolymer sequence: UGGACCAACAGCUUCCAUAGUAUUUAGUUA
pre-steady-state target cleavage rate: 0.00383
//
Biopolymer sequence: UCCACCAACAGCUUGGAUAGUAUUUAGUUA
pre-steady-state target cleavage rate: 0.0553
//
Biopolymer sequence: UCCUCCUACAGCUUGCUUAGUAUUUAGUUA
pre-steady-state target cleavage rate: 0.0241

Okay, here is my list. What is pre-steady-state target cleavage rate for each of these?
1. UGGACCAACAGCUUGGAUAGUAUUUAGUUA
2. UCGACCAACAGCUUCCAUAGUAUUUAGUUA
3. UCCUCCAACAGCUUGGAUAGUAUUUAGUUA

# output
[0.0691, 0.0035, 0.0527]

* * *

System: MIWI (PIWIL1) piRISC loaded with L1MC piRNA (30 nt);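 also: 1 nM active piRISC with 0.1 nM target library at 33 °C single turnover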
Protocol: pre-steady-state target cleavage rate (min^-1); MIWI and MILI are mouse PIWI proteins and EfPiwi is from a freshwater sponge; tags in brackets are library labels; higher = faster piRNA-guided slicing of the target;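 also: 1 nM active piRISC with 0.1 nM target library at 33 °C single turnover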
Condition: guide: L1MC piRNA 5'p-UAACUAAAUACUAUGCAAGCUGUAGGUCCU; auxiliary factor: none (no GTSF1)
In all, about 8,200 sequences were measured (“pre-steady-state target cleavage rate”: median about 0.024, highest 2% from about 1.3 on). This is one part of a sample in which the highest values are shown more often than they occur.
Each record's pre-steady-state target cleavage rate is compared with A = under 0.01, B = from 0.01 up to 0.03, C = 0.03 and over to give its class.

Biopolymer sequence: UCCUGGUACAGCUUGCAUAGUUAUUAGUUA
Label value: B

# input Given "ACCACCUACAGCUUGCAUAGUAUUUAGUUA" , name the class its pre-steady-state target cleavage rate places it in.
# output C

# input The entry to classify is "AGGACCAACAGCUUGCAUAGUAUUUAGAAA" ; which class holds it?
# output C

# input // return the class label for "UCCACCUACAGCUUAGCAUAGUAUUUAGUUA"
# output B

# input Returns: class label. Input: "UGGACCUACAGGAAGCAUAGUAUUUAGUUA"
# output A

# input Categorize the following entry: "UCCACCUACAGCUUGCAUAAUAUUUAGUUA"
# output B
